Data provenance is PubChem BioAssay AID1918993.

# System: 233499-124-R-J3-PDC complex spheroid growth;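 also: spheroids exposed to agents for seven days before reading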
# assayName: Anticancer human tumor 233499-124-R-J3-PDC patient-derived colon adenocarcinoma cell line growth inhibition [AhR]
# assaySetup: second compound 0.1 µM; first compound 1 µM; stronger effect = lower value
In this section, each of the compounds is paired with its reported viability, T/C.
measuredProperty: viability, T/C (%)

1. COc1ccc([C@@H](O)c2cc(-c3ncnc4cc(N5CCOCC5)ccc34)c(F)cc2Cl)nn1 + Cc1cncc(-c2nc(NCCc3c[nH]c4ccccc34)c3ncn(C(C)C)c3n2)c1; 90.5
2. COc1cccc2c1C(=O)c1c(O)c3c(c(O)c1C2=O)CC(O)(C(=O)CO)CC3OC1CC(N)C(O)C(C)O1 (stereo not drawn) + Cc1cncc(-c2nc(NCCc3c[nH]c4ccccc34)c3ncn(C(C)C)c3n2)c1; 83.2
3. NS(=O)(=O)OCC1CC(n2ccc3c(NC4CCc5ccccc54)ncnc32)CC1O (stereo not drawn) + Cc1ccccc1N=Nc1ccc(NC(=O)c2ccnn2C)c(C)c1; 10.8
